Ref: paper PMC13541613

binding signal for assorted sequences
- testedSystem: ZNF721 full-length (Homo sapiens, UniProt Q8TF20-2 1-923)
- Sequence (Q8TF20 other isoform, or with tags, fused parts or gaps): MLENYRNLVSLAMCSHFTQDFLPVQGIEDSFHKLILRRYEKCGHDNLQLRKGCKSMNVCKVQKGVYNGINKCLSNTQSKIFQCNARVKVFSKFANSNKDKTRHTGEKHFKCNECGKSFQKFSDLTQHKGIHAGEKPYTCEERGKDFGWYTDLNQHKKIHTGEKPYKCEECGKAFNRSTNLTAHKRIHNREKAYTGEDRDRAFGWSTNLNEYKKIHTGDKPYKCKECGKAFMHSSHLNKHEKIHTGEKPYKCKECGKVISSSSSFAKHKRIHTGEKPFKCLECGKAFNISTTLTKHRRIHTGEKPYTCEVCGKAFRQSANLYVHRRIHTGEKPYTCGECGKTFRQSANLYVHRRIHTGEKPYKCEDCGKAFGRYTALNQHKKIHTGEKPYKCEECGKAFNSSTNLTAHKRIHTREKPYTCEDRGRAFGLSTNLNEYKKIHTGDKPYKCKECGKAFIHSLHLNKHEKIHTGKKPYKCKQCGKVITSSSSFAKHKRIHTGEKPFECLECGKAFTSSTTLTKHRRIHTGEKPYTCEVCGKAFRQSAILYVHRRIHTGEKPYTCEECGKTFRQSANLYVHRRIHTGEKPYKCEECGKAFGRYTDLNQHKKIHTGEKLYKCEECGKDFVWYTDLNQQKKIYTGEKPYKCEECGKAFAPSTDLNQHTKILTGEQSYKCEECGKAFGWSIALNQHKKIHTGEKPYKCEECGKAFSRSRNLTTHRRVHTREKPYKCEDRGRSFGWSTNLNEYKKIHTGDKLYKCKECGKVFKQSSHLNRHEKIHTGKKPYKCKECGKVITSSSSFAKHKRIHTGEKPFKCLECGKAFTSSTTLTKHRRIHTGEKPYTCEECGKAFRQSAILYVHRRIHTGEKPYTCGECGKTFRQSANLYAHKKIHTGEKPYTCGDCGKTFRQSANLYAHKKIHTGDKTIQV
- assay: HT-SELEX; 20 mM HEPES pH 7, 140 mM KCl, 5 mM NaCl, 1 mM K2HPO4, 2 mM MgSO4, 100 uM EGTA, ZnSO4, 0.1% Tween20; room temperature, 1 h; high values mean tight binding
- runParameters: protein: ivt; tags: eGFP (N-terminal); dsDNA, one strand shown
parameter: binding signal (relative 10-mer count)

In [3]: df
Out[3]:
      sequence       parameter  resultnumber
 0  ACAAAACAGT  binding signal         0.115
 1  CCACCACACC  binding signal         0.148
 2  AAAAACAGCG  binding signal         0.589
 3  AAAACAGTGC  binding signal         0.121
 4  CCGTCCCACC  binding signal         0.123
 5  ACTTCATACT  binding signal         0.154
 6  AACACTGCTT  binding signal         0.388
 7  CCGCCCCACC  binding signal         0.257
 8  AAAAAGCAGA  binding signal         0.107
 9  CCACCACCAC  binding signal          0.19
10  CCCTCCCCAC  binding signal         0.217
11  GCTTCATACC  binding signal         0.229
12  CCCAGCCCCC  binding signal         0.163
13  CGGTATGAAG  binding signal         0.108
14  CCCCCGCCAC  binding signal         0.176

* * *

binding signal for assorted sequences
- testedSystem: ZNF721 full-length (Homo sapiens, UniProt Q8TF20-2 1-923)
- assay: HT-SELEX; 20 mM HEPES pH 7, 140 mM KCl, 5 mM NaCl, 1 mM K2HPO4, 2 mM MgSO4, 100 uM EGTA, ZnSO4, 0.1% Tween20; room temperature, 1 h; high values mean tight binding
- runParameters: protein: ivt; tags: eGFP (N-terminal); dsDNA, one strand shown
parameter: binding signal (relative 10-mer count)

In [3]: df
Out[3]:
      sequence  resultnumber
 0  CACCCTCCCA         0.123
 1  CACCCCAACC         0.142
 2  AGCGTCTCCT         0.109
 3  AAAGCTATCC         0.165
 4  AAAAACAAGC         0.123
 5  CGCCCCCCGC          0.12
 6  AAAAGCAGTA          0.17
 7  AAAAGCAGGG         0.207
 8  AAAAAAAGAA         0.104
 9  CTGTTTTTTC         0.357
10  GGGAGGGGGA         0.161

* * *

- testedSystem: ZNF721 DBD2 (Homo sapiens, UniProt Q8TF20-2 395-923)
- Sequence (Q8TF20 383-911): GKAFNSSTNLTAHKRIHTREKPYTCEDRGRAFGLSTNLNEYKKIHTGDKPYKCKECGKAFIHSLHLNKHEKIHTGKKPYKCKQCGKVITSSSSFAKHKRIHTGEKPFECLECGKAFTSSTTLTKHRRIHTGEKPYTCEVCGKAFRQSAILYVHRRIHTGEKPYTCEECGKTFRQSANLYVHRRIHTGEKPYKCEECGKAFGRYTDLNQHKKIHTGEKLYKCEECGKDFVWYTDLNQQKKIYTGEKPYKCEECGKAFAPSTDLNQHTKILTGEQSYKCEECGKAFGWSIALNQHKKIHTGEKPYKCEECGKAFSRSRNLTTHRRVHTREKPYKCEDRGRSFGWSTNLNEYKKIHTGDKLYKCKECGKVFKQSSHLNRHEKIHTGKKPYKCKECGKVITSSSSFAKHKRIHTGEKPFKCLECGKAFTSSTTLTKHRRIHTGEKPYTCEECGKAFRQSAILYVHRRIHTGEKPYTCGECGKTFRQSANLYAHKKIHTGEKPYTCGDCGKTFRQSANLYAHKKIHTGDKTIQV
- assay: HT-SELEX; 20 mM HEPES pH 7, 140 mM KCl, 5 mM NaCl, 1 mM K2HPO4, 2 mM MgSO4, 100 uM EGTA, ZnSO4, 0.1% Tween20; room temperature, 1 h; high values mean tight binding
- runParameters: protein: ivt; tags: eGFP (N-terminal); dsDNA, one strand shown
parameter: log10 binding signal (log10 of the value in relative 10-mer count)

>>> print(df.to_string())
      sequence  resultnumber
 0  CACCCCCCCG         -2.52
 1  GGTGGGGGGA         -2.39
 2  AAAAAGCATA         -1.43
 3  CCCCACCATC         -2.25
 4  GTATGAAGCA         -2.88
 5  CTGTTTTTTC         -0.44
 6  CCCCTCCCGC         -2.20
 7  ACAGCATACC         -0.16
 8  ACCCCAACCC         -2.46
 9  CCGCCCCTCC         -2.51
10  AACAGCATGA         -0.51
11  ACCCTCCCAC         -2.23
12  AAAAAAGCTA         -2.56
13  CCCCACCAAC         -2.10
14  CACCACCACC         -1.96
15  CACCACCCCA         -2.17
16  ACCACCCGCC         -2.51
17  TAAAACAGCA         -0.75
18  GGGGAGGGGA         -2.44
19  GGGGGCGGGA         -2.84
20  CCACCCCAAC         -2.18
21  CAGCGTACCC         -0.39
22  AGGTGGTGGG         -2.23
23  CGCTTCATAC         -2.92
24  CCCCCACCAA         -2.35
25  CTCCCTCCCC         -2.51
26  CCCCCACCAC         -2.15
27  AAAACAGGAT         -0.88
28  CCCTCACCAC         -2.23
29  CGCCCCCCTC         -2.69
30  AGCGTTTCCA         -0.34
31  CGCCCCCGCC         -2.67
32  CCCCCACCCA         -2.46
33  CCCCACCCAC         -2.23
